For each of the compounds below, state its EC50.
- Tested on: HCV 1a-H77 subgenomic replicon
- Assay Notes: microbe, parasite or virus in culture
- Assay type: cell-based, HCV genotype 1a
- Run Conditions: Hepatitis C virus, stable replicon, 5% FBS, absence of human plasma; read-out: Stable Replicon 1a H77 5% FBS EC50
The answer consists of two parts: a number and, after it, its unit.

Previously resolved entries follow.
> print(dat)
                                    compound               target.under.test  reported.value
 1  CC(C)(O)C(O)CN(c1cc2oc(-c3ccc(F)cc3)c(-c3ncc[nH]3)c2cc1C1CC1)S(C)(=O)=O (stereo not drawn)  HCV 1a-H77 subgenomic replicon       0.0602 µM
 2  COCCN(c1cc2oc(-c3ccc(F)cc3)c(-c3ncc[nH]3)c2cc1C1CC1)S(C)(=O)=O  HCV 1a-H77 subgenomic replicon       0.0817 µM
 3  CS(=O)(=O)N(CCCCCO)c1cc2oc(-c3ccc(F)cc3)c(C3=NOCN3)c2cc1C1CC1  HCV 1a-H77 subgenomic replicon       0.0089 µM
 4  CS(=O)(=O)N(CCC/C(N)=N/O)c1cc2oc(-c3ccc(F)cc3)c(C3=NOCCN3)c2cc1C1CC1  HCV 1a-H77 subgenomic replicon       0.0557 µM
 5  CS(=O)(=O)N(CCCn1cccc1)c1cc2oc(-c3ccc(F)cc3)c(C3=NOCCN3)c2cc1C1CC1  HCV 1a-H77 subgenomic replicon       0.0194 µM
 6  [2H]C([2H])(CCCCC)N(c1cc2oc(-c3ccc(F)cc3)c(-c3ncc[nH]3)c2cc1C1CC1)S(C)(=O)=O  HCV 1a-H77 subgenomic replicon       0.0599 µM
 7  COc1ccc(CN(c2cc3oc(-c4ccc(F)cc4)c(C4=NOCC(=O)N4)c3cc2C2CC2)S(C)(=O)=O)cc1  HCV 1a-H77 subgenomic replicon         2.16 µM
 8  C=CCN(c1cc2oc(-c3ccc(F)cc3)c(-c3ncc[nH]3)c2cc1C1CC1)S(C)(=O)=O  HCV 1a-H77 subgenomic replicon       0.0352 µM
 9  CS(=O)(=O)N(CCCC#N)c1cc2oc(-c3ccc(F)cc3)c(C3=NOCCN3)c2cc1C1CC1  HCV 1a-H77 subgenomic replicon       0.0063 µM
10  CN(C)CCCN(c1cc2oc(-c3ccc(F)cc3)c(C3=NOCCN3)c2cc1C1CC1)S(C)(=O)=O  HCV 1a-H77 subgenomic replicon       0.0648 µM

# batch: return EC50 for each of the 5 compounds below
1. CC(C)CCN(c1cc2oc(-c3ccc(F)cc3)c(C3=NOCC(=O)N3)c2cc1C1CC1)S(C)(=O)=O
2. CS(=O)(=O)CCCCN(c1cc2oc(-c3ccc(F)cc3)c(-c3ncc[nH]3)c2cc1C1CC1)S(C)(=O)=O
3. CS(=O)(=O)N(CCCC(N)=O)c1cc2oc(-c3ccc(F)cc3)c(-c3ncc[nH]3)c2cc1C1CC1
4. CS(=O)(=O)CCCN(c1cc2oc(-c3ccc(F)cc3)c(C3=NOCCN3)c2cc1C1CC1)S(C)(=O)=O
5. CS(=O)(=O)N(CCN)c1cc2oc(-c3ccc(F)cc3)c(-c3ncc[nH]3)c2cc1C1CC1

// result
["0.248 µM", "0.0083 µM", "0.0153 µM", "0.0145 µM", "0.152 µM"]
